For each of the binders below, state its iScore.
- assayed.target: T1, HLA-A*1501 (human)
- T1 construct: possibly meant as HLA-B*1501
- experimental.protocol: iTopia net score
Lab note: jot down the number only; don't add units.

Data point: SFACLKELY [cdr2 157-165 SFACLKELY] ; iScore = 0.132

Data point: ASQQKILSL [cdr2 107-113 ASQQKILSL] ; iScore = 0.092

Data point: TQYSALKVK [cdr2 351-359 TQYSALKVK] ; iScore = 0.181

Data point: RARALELEA [cdr2 244-252 RARALELEA] ; iScore = 0.118

Data point: SQSLLEEMF [cdr2 287-295 SQSLLEEMF] ; iScore = 0.062

Data point: AVKQRGISL [cdr2 337-345 AVKQRGISL] ; iScore = 0.16

Data point: LLHEVDTQY [cdr2 345-353 LLHEVDTQY] ; iScore = 0.121

Data point: RQHFVYDHV [cdr2 168-176 RQHFVYDHV] ; iScore = 0.088

Data point: ALFKEIFSC [cdr2 424-432 ALFKEIFSC] ; iScore = 0.053

Data point: QMLQSEHPF [cdr2 259-267 QMLQSEHPF] ; iScore = 0.257

Data point: KQRGISLLH [cdr2 339-347 KQRGISLLH] ; iScore = 0.163

Data point: AVQTSRAAA [cdr2 378-386 AVQTSRAAA] ; iScore = 0.062
